Documented Dmax across a set of compounds
- TARGET_OF_ASSAY: G2019S LRRK2 (Homo sapiens, UniProt Q5S007, G2019S)
- Construct: expressed in transfected cells; host or cells: HEK293 (ATCC CRL-1573), transient transfection, mammalian expression vector with ubiquitin promoter
- Sequence (Q5S007 whole entry G2019S): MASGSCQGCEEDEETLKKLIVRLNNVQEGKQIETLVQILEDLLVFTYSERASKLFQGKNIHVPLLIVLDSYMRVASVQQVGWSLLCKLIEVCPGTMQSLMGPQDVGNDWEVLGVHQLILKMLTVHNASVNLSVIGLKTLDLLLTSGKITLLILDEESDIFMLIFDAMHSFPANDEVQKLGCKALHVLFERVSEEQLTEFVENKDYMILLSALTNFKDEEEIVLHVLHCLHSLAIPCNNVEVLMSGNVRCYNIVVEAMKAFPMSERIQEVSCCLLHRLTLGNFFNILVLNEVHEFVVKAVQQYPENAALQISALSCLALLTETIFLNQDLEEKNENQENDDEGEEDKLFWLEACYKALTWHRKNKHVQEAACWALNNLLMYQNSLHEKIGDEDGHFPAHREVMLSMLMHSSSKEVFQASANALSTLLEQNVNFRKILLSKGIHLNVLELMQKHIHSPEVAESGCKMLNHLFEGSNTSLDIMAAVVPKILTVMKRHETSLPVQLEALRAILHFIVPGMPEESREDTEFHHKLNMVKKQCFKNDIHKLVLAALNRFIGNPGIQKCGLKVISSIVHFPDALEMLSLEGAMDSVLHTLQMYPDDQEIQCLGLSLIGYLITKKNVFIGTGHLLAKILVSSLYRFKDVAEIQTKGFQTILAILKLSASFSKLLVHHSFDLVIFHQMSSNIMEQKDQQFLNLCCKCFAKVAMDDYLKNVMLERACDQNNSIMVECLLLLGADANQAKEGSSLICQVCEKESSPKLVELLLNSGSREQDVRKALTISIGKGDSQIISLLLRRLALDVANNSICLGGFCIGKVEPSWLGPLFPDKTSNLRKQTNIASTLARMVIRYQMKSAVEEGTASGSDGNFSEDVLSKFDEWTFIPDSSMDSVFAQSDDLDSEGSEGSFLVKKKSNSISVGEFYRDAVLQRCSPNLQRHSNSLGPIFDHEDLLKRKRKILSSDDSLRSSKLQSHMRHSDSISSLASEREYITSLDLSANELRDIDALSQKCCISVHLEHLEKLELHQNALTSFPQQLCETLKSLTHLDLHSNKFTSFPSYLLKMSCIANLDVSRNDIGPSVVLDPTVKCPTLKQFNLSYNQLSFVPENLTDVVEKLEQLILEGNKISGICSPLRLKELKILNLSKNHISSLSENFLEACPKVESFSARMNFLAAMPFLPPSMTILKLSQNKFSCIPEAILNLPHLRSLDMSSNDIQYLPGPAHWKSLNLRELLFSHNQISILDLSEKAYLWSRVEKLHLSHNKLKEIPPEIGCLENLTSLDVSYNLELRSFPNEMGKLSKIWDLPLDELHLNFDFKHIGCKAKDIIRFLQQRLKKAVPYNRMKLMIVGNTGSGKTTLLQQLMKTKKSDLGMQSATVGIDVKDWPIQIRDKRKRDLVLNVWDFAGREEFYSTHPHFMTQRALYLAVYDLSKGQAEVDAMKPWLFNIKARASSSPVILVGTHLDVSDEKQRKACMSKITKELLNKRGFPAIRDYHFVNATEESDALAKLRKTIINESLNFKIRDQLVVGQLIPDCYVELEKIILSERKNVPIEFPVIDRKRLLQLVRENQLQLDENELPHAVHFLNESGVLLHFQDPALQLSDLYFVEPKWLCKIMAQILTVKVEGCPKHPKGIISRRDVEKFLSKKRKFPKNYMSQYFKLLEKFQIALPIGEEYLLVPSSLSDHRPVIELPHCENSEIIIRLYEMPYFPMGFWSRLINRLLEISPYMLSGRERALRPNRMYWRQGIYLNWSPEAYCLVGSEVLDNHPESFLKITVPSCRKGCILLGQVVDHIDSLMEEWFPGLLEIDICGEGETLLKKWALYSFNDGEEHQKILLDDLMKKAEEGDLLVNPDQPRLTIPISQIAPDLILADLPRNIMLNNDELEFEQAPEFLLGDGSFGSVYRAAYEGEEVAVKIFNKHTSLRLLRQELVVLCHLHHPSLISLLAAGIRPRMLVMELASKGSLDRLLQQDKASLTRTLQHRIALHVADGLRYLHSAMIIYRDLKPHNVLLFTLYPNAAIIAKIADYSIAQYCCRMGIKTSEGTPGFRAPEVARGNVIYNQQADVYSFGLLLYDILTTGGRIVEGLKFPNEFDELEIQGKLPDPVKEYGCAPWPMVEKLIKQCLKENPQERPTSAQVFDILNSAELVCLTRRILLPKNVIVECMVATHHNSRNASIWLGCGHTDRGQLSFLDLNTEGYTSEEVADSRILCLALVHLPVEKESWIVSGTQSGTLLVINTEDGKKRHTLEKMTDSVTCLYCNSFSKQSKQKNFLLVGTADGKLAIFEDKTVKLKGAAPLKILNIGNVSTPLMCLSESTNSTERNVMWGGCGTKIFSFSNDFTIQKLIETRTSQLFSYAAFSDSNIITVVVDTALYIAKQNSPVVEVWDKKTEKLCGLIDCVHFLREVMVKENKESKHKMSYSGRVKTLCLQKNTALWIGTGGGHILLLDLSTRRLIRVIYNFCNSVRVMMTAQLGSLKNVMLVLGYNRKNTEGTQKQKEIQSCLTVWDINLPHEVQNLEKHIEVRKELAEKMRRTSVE
- EXPERIMENTAL_PROTOCOL: LRRK2 degradation assay, HiBit-tagged G2019S LRRK2 expressed from plasmid in HEK293 cells (Nano-Glo Dual-Luciferase)
- Format: cell-based
- ASSAY_CONTEXT: HiBit-tagged G2019S LRRK2 in HEK293 cells, 24 hours

A selection of reference data follows.
- COMPOUND: "CC1(Oc2ccc3[nH]nc(-c4cc(N5CCN(CC67CC(CN8CCN(c9ccc%10c(c9)C(=O)N(C9CCC(=O)NC9=O)C%10=O)CC8)(C6)C7)CC5)ncn4)c3c2)CC1 (centres unmarked)"
  Dmax: "< 50%"
- COMPOUND: "CC1(Oc2ccc3[nH]nc(-c4cc(N5CCC(O[C@@H]6CCN(CC7CCN(c8ccc9c(c8)C(=O)N(C8CCC(=O)NC8=O)C9=O)CC7)C6)CC5)ncn4)c3c2)CC1 (some centres unmarked)"
  Dmax: "< 50%"
- COMPOUND: "CC1(Oc2ccc3[nH]nc(-c4cc(N5CCN(CC6CCN(CC7CCN(c8ccc9c(c8)C(=O)N(C8CCC(=O)NC8=O)C9=O)CC7)CC6)CC5)ncn4)c3c2)CC1 (centres unmarked)"
  Dmax: "50 to 70%"

State its Dmax on G2019S LRRK2 (Homo sapiens, UniProt Q5S007, G2019S): C[C@H]1CN(c2cc(-c3n[nH]c4ccc(OC5(C)CC5)cc34)ncn2)CCN1CCN1CCN(CC2CCN(c3ccc4c(c3)C(=O)N(C3CCC(=O)NC3=O)C4=O)CC2)CC1 (some centres unmarked)
≥ 70%

State its Dmax on G2019S LRRK2 (Homo sapiens, UniProt Q5S007, G2019S): CC1(Oc2ccc3n[nH]c(-c4cc(N5CCC(CN6CCN(CC7CCN(c8ccc9c(c8)C(=O)N(C8CCC(=O)NC8=O)C9=O)CC7)CC6)CC5)ncn4)c3c2)CC1 (centres unmarked)
≥ 70%
